assay: VP16 counterscreen qHTS for inhibitors of ROR gamma transcriptional activity; conditions: Drosophila S2 Gal4-VP16 UAS-luciferase, luminescence, 20 h; series mostly up to 53.6 µM;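 also: Gal4-VP16 expression switched on by copper sulfate through the metallothionein promoter; nearly all actives have a fitted effect of over 50% in size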
About 11,000 (3.5%) of roughly 310,000 compounds were called active. Roughly 8% stayed inconclusive and do not appear here. Calls follow the shape of the dose curve; as a rule, active = well fitted inhibition curve with a large enough effect; inconclusive = small, poorly fitted or top-dose-only effect, or effect the other way; inactive = flat fitted curve, though single readings scatter. This is one part of a sample in which actives are shown more often than they occur.
Outcomes: 1.0 for active, 0.0 for inactive

{"compound": "Cc1cccc(C)c1OCCN1CCOCC1", "class_assignment": 0.0}
{"compound": "COC(=O)c1cc(NC2c3ccccc3C(=O)N2c2ccc(Cl)cn2)cc(C(=O)OC)c1 (configuration not stated)", "class_assignment": 1.0}
{"compound": "COc1ccc(S(=O)(=O)NCCc2cc3ccc(C)c(C)c3[nH]c2=O)cc1", "class_assignment": 0.0}
{"compound": "Fc1cc(F)c2nc(Nc3nc4c(F)cccc4s3)sc2c1", "class_assignment": 1.0}
{"compound": "O=C(Nc1nc2ccc([N+](=O)[O-])cc2s1)c1ccc(S(=O)(=O)N2CCCc3ccccc32)cc1", "class_assignment": 1.0}
{"compound": "CCCCn1c(N)c(N(CCOC)C(=O)c2oc3ccc(OC)cc3c2C)c(=O)[nH]c1=O", "class_assignment": 0.0}
{"compound": "CC1=C(C(N)=O)C(c2ccc3c(c2)OCO3)n2nc(-c3cccc(C)c3)nc2N1 (configuration not stated)", "class_assignment": 1.0}
{"compound": "O=C(OCc1ccc(Br)cc1)c1cccc(-c2nnc(-c3ccccc3)o2)c1", "class_assignment": 0.0}
{"compound": "CCOC(=O)c1cc(C(=O)Nc2ccc(S(=O)(=O)Nc3ccc(OC)cc3)cc2)nn1C", "class_assignment": 0.0}
{"compound": "CSc1nc2ccc(S(=O)(=O)N3CCc4ccccc43)cc2s1", "class_assignment": 0.0}
{"compound": "O=C(COC(=O)c1n[nH]c2ccccc12)NCc1ccccc1", "class_assignment": 0.0}
{"compound": "O=C1N=C(N2CCCC2)S/C1=C\\c1cccc(Br)c1", "class_assignment": 0.0}
{"compound": "O=C1Nc2ccccc2/C1=C/c1ccnc2ccccc12", "class_assignment": 0.0}
{"compound": "CC(C)NS(=O)(=O)c1ccc(OCC(=O)NC2CCCCCC2)cc1", "class_assignment": 0.0}
{"compound": "O=C(NC(Nc1nc2ccc([N+](=O)[O-])cc2s1)(C(F)(F)F)C(F)(F)F)c1ccccc1", "class_assignment": 1.0}
{"compound": "Cc1ccc(O)c(CNc2nc3ccccc3[nH]2)c1", "class_assignment": 0.0}
{"compound": "Cc1ccc(S(=O)Cc2ccc(C(=O)N3CCN(C4CCCCC4)CC3)o2)cc1 (configuration not stated)", "class_assignment": 0.0}
{"compound": "Cc1cccc(NC(=O)Nc2nnc(-c3ccccc3)o2)c1", "class_assignment": 0.0}
{"compound": "O=C(COC(=O)c1ccc(F)cc1)Nc1nc2ccc([N+](=O)[O-])cc2s1", "class_assignment": 0.0}
{"compound": "CN(C)S(=O)(=O)c1ccc(NC(=O)COC(=O)Cn2[nH]c(=O)c3ccccc3c2=O)cc1", "class_assignment": 0.0}
{"compound": "COc1ccc(/C=C(\\C#N)c2c[nH]c3ccccc23)cc1", "class_assignment": 0.0}
{"compound": "COC(=O)c1ccc(NC(=S)NN2CCOCC2)cc1", "class_assignment": 0.0}
